# System: A549
# Experiment summary: Growth inhibition of apoptosis resistant human A549 cells assessed as reduction in cell viability incubated for 72 hrs by MTT assay
# Assay type: functional
# Recorded conditions: A549, 72 h
Measured metric: GI50

{"Molecular string": "CO[C@H]1C[C@H]2C(=C[C@@H]1Cl)[C@H]1C[N@@]2Cc2c1cc1c(c2I)OCO1", "GI50": "> 100 µM"}
{"Molecular string": "CO[C@H]1C[C@H]2C(=C[C@@H]1O)[C@H]1CN2Cc2cc3c(cc21)OCO3", "GI50": "5 µM"}
{"Molecular string": "CO[C@H]1C[C@H]2C(=C[C@@H]1Cl)[C@H]1C[N@@]2Cc2c(I)c3c(c(I)c21)OCO3", "GI50": "78 µM"}
{"Molecular string": "C=CCO[C@H]1C=C2[C@H]3C[N@@](Cc4cc5c(cc43)OCO5)[C@H]2C[C@@H]1OC", "GI50": "10 µM"}
{"Molecular string": "CO[C@H]1C[C@H]2C(=C[C@H]1Br)[C@H]1C[N@@]2Cc2cc3c(cc21)OCO3", "GI50": "9 µM"}
{"Molecular string": "C#CCO[C@H]1C=C2[C@H]3C[N@@](Cc4cc5c(cc43)OCO5)[C@H]2C[C@@H]1OC", "GI50": "23 µM"}
{"Molecular string": "CO[C@H]1C[C@H]2C(=C[C@@H]1Cl)[C@H]1C[N@@+]2([O-])Cc2cc3c(cc21)OCO3", "GI50": "> 100 µM"}
{"Molecular string": "CO[C@H]1C[C@H]2C(=C[C@@H]1Cl)[C@H]1C[N@@]2Cc2cc3c(cc21)OCO3", "GI50": "6 µM"}
{"Molecular string": "CO[C@H]1C[C@H]2C(=C[C@@H]1c1c[nH]c3ccccc13)[C@H]1C[N@@]2Cc2cc3c(cc21)OCO3", "GI50": "18 µM"}
{"Molecular string": "CCO[C@H]1C=C2[C@H]3C[N@@](Cc4cc5c(cc43)OCO5)[C@H]2C[C@@H]1OC", "GI50": "59 µM"}

(Q) Fill in: GI50 of C#CC[N@@+]12Cc3cc4c(cc3[C@H](C1)C1=C[C@H](Cl)[C@@H](OC)C[C@@H]12)OCO4 is ___
(A) > 100 µM

(Q) Next: CO[C@H]1C[C@H]2C(=C[C@@H]1NCc1ccccc1)[C@H]1C[N@@]2Cc2cc3c(cc21)OCO3
(A) 59 µM

(Q) Quick one: CO[C@H]1C[C@H]2C(=C[C@@H]1O)[C@H]1C[N@]2[C@@H](OS(C)(=O)=O)c2cc3c(cc21)OCO3
(A) > 100 µM

(Q) Same thing, different compound: CO[C@H]1C=C2[C@H]3C[N@@](Cc4cc5c(cc43)OCO5)[C@H]2C[C@@H]1OC
(A) 3 µM

(Q) Try this compound too: CO[C@H]1C[C@H]2C(=C[C@@H]1c1ccc[nH]1)[C@H]1C[N@@]2Cc2cc3c(cc21)OCO3
(A) 86 µM

----------
# Tested on: Hs 683
# Experiment summary: Growth inhibition of apoptosis sensitive human Hs683 cells assessed as reduction in cell viability incubated for 72 hrs by MTT assay
# Type: functional
# Recorded conditions: Hs 683, 72 h
Measured metric: GI50 (µM)
Write the value in µM as a bare number.

Example molecules with recorded GI50:
{"Molecular string": "CO[C@H]1C=C2[C@H]3C[N@@](Cc4cc5c(cc43)OCO5)[C@H]2C[C@@H]1OC", "Units label": "µM", "GI50": 3}
{"Molecular string": "CO[C@H]1C[C@H]2C(=C[C@@H]1O)[C@H]1CN2Cc2cc3c(cc21)OCO3", "Units label": "µM", "GI50": 4}

(Q) Recorded GI50 for CO[C@H]1C[C@H]2C(=C[C@H]1Br)[C@H]1C[N@@]2Cc2cc3c(cc21)OCO3 , please?
(A) 5
